This section presents molecules with their documented melting point values.

Guide cases for melting point, answers given:
| molecule | testReadout | measuredValue |
| --- | --- | --- |
| CCOC(=O)Cc1ccc2c(c1)C(=O)c1cc(Cl)ccc1CS2 | melting point | 68 to 71 °C |
| CN1C2=C(C(=O)OC2)C(c2ccncc2)c2cc3c(cc21)OCO3 (stereo not given) | melting point | 255 °C |
| CN1CCC(O)(c2cccc(F)c2F)C1 (single isomer, unassigned; (-)) | melting point | 131 to 132 °C |
| CC(Cl)(Cl)C(NC(=O)c1cc(F)cc(F)c1)NC(=NC#N)Nc1cccnc1 (stereo not given) | melting point | 191 to 193 °C |
| COC(=O)C1CNCCN1C(=O)c1cc(OC)c(OC)c(OC)c1 (stereo not given) | melting point | 134 to 135 °C |
| Clc1ncc(-c2ccco2)cn1 | melting point | 134 to 136 °C |

Task: Quick one: melting point of CCOC(=O)c1ccc2c(c1)S(=O)c1cc([N+](=O)[O-])ccc1-2 (stereo not given) ?
Result: 245 to 250 °C

Task: Quick one: melting point of `CC1(C)C=C(N2Cc3ccccc3C2=O)c2cc(S(=O)(=O)C(F)(F)F)ccc2O1` ?
Result: 110 to 115 °C

Task: Quick one: melting point of `O=C(O)c1cc([N+](=O)[O-])cc2ccc(-c3ccccc3)nc12` ?
Result: 268 to 269 °C
